Each recorded value in this set is attributed to patent US20050171192A1.

Experiment: Example 7: bone loss associated with cancer treatments (hormone therapy)
Type: in vivo
Conditions: oral 100 mg in conjunction with hormone therapy; compared to placebo group
Procedure: Individuals suffering from cancer and being treated with hormone therapy are identified. The individuals are divided into 11 groups of 10 each. In conjunction with hormone therapy, Groups 1 through 10 are orally administered 100 mg of histamine, histamine agonists, histamine salts, histamine prodrugs, NADPH-oxidase inhibitors, histamine dihydrochloride, histamine phosphate, serotonin, 5HT agonists, or histamine receptor agonists, respectively. […]
measured_attribute: bone loss

| compound | measured_attribute | result |
| --- | --- | --- |
| Cl.Cl.NCCc1c[nH]cn1 [histamine dihydrochloride] | bone loss | inhibited |
| NCCc1c[nH]cn1.O=P(O)(O)O [histamine phosphate] | bone loss | inhibited |
| NCCc1c[nH]c2ccc(O)cc12 | bone loss | inhibited |
| NCCc1c[nH]cn1 | bone loss | inhibited |
